Test Summary: chemical genetic growth profiling, strain panel (AID 1159580);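 also: tested at 20 µM; growth read once vehicle control cultures reached saturation at 30 °C; 1 = growth at the plate median or of vehicle wells; lower values mean less growth of the strain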
Run Conditions: S. cerevisiae deletion strains, growth OD, locus YOR083W, strain WHI5, stronger effect = lower value
Hit rate of the full screen: of about 5,500 compounds, about 2,000 (36%) were called active. Another 18% or so got no clear call; they are omitted. Some of the results follow.
Just a reminder that ties go to criterion not met: only normalized growth strictly below 1 counts as criterion met.

Smiles Notation: NS(=O)(=O)c1cc2c(cc1Cl)NC(CSCc1ccccc1)=NS2(=O)=O
Assigned Label: criterion not met

Confirm or reject: normalized growth of CNCCCC12CCC(c3ccccc31)c1ccccc12 lies strictly below 1
criterion met

---

Give measured normalized growth for each item. Keep answers brief.
Test Summary: chemical genetic growth profiling, strain panel (AID 1159580);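 also: tested at 20 µM; growth read once vehicle control cultures reached saturation at 30 °C; 1 = growth at the plate median or of vehicle wells; lower values mean less growth of the strain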
Run Conditions: S. cerevisiae deletion strains, growth OD, locus YEL061C, strain CIN8 (second series), stronger effect = lower value
The whole screen tested about 5,500 compounds, of which about 2,000 (36%) were called active. Not shown: some 18% with an inconclusive outcome. The list shows a part of the results.
Give bare numbers.

// solved cases for normalized growth follow
Molecule: NC(=O)NC(=O)Cc1ccccc1
Measurement Kind: normalized growth
Meas Value: 0.976
//
Molecule: CN(C)CCCN1c2ccccc2Sc2ccc(Cl)cc21
Measurement Kind: normalized growth
Meas Value: 0.4
//
Molecule: CN(C)CCCN1c2ccccc2Sc2ccc(C(F)(F)F)cc21
Measurement Kind: normalized growth
Meas Value: 1.01
//
Molecule: CN(C)CCCN1c2ccccc2Sc2ccccc21
Measurement Kind: normalized growth
Meas Value: 0.96
//
Molecule: CC12CCC3C(CC3(C)C)C(C)(CCC1=O)O2 (stereo not drawn)
Measurement Kind: normalized growth
Meas Value: 0.992
//
Molecule: COc1ccc(C2Sc3ccccc3N(CCN(C)C)C(=O)C2OC(C)=O)cc1 (stereo not drawn)
Measurement Kind: normalized growth
Meas Value: 0.943
//
Molecule: Oc1c(Cl)cc(Cl)cc1Sc1cc(Cl)cc(Cl)c1O
Measurement Kind: normalized growth
Meas Value: 0.0607
//
Molecule: NC1=NCCN1CC(=O)O
Measurement Kind: normalized growth
Meas Value: 1.03

Could I get normalized growth for every one of these entries?
1. CC(C)C[C@@H](CN)CC(=O)O
2. CC1(C)CC2C1CC[C@]1(CBr)CCC3C(CC(=O)O)C(=O)O[C@@]32C1 (stereo partly drawn)
3. CC(=O)Oc1cccc(O)c1

1.01
1.01
1.02

Could I get normalized growth for every one of these entries?
1. CC(=O)Oc1ccc(O)cc1
2. CC1(C)CC2C1CC[C@]1(C)CCC3C(C(=O)O)CC(=O)O[C@@]32C1 (stereo partly drawn)

[0.98, 1.04]

---

Test Summary: chemical genetic growth profiling, strain panel (AID 1159580);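 also: tested at 20 µM; growth read once vehicle control cultures reached saturation at 30 °C; 1 = growth at the plate median or of vehicle wells; lower values mean less growth of the strain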
Run Conditions: S. cerevisiae deletion strains, growth OD, locus YJR043C, strain POL32, stronger effect = lower value
Among all 5,500 compounds or so, about 2,000 (36%) were called active. Roughly 18% stayed inconclusive and do not appear here. The list shows a part of the results.
Just a reminder that ties go to F: only normalized growth strictly below 1 counts as T.

Some entries whose results are on file:
Molecule: CC(C)(C)NCC(O)c1ccc(O)c(CO)c1 (stereo not given)
Assigned Label: F

Molecule: Cc1cc(C)c(Cn2nc(C(C)(C)C)cc2C(=O)Nc2cccc(C(F)(F)F)c2)c(C)c1
Assigned Label: T

Molecule: CN(C)CCCN1c2ccccc2CCc2ccccc21
Assigned Label: F

Molecule: CC(=O)Oc1ccc(O)cc1
Assigned Label: T

Molecule: Nc1ccc2nonc2c1N
Assigned Label: T

Confirm or reject: normalized growth of O=[N+]([O-])c1ccc(N2CCOCC2)cc1 lies strictly below 1
F

Confirm or reject: normalized growth of Clc1ccc(Sc2ncnc3ccsc23)cc1 lies strictly below 1
T
